# Assay notes: soluble on expression in E. coli; label from the status in PepcDB or PDB records

>  <Sequence chain>
MSKFYSEQFKRDAVALYENNENLSLAAAAAELRVNRASLHQWKKELGTGKRTRMIEAKAQAEAASDAERIRALEKENAKLREERDILRKAAKYFAEETSWLEHHHHHH

>  <soluble on expression in E. coli>
not soluble

$$$$
>  <Sequence chain>
MSTNIFLHLPTTISTERTILRKTSFADATTLFDIWSDNDVAQFMNIEKFSTILQAEEMIQAIENEPNACRYTIFTMDNSLKAIGSLGINDINKNNQTIEIGYELAKSHWRQGLMFEILTTFLNTTKAHLPYKTITAKVLPENIASIKLLTKLGFELISTGQELDLHSGKICEISNYQLILN

>  <soluble on expression in E. coli>
not soluble

$$$$
>  <Sequence chain>
MAHHHHHHSLKQKNAYNRLTNHYDDVLTGRKWWSWLYMHCLWKTDDNIIAGSVLDMIPGNFEGRILDVPVGTAIFTYDKYRRMPQAEIVGLDYSQEMLDIAAMRFSAEQITNVSLRQGDVGSLPFPDAAFDLVLSMNGFHVFPDKDRAFAETFRVLRGGGLFCGCFYVKGERKPADWFVRKFLDKKGLFRPPHYTREEAIEKLRSLYGDNVEIQDARSLLVFKCTKPREG

>  <soluble on expression in E. coli>
soluble

$$$$
>  <Sequence chain>
MTGWGDHDSLYINPYENRNKLRTYSEYFPIVEVDSSFYAMQPARNYTKWAMETPKDFSFIVKAYQGMTGHMKGEIPFSTFDEMFDVYKQSILPLIEAGKLKTILFQYPPWFDCKKKNVDFLRYTKEKMEGLPCAIEFRNQTWFYPEMRDRTLQFLEQEKWIHTICDEPQAGIGSVPLVLEVTNSDMALIRFHGRNVHGWLDKGENWRAVRCLYRYNNKELEEWVERLEQLKKKTKDIYVLFNNNSGGDAADNAKQLMKMMNITYGEPKPEQLNFFE

>  <soluble on expression in E. coli>
not soluble

$$$$
>  <Sequence chain>
MSLRKEFPLMNRLKELRKEKNITLVELSEELGIPRSTLNRYENEDSEPKQETWEKLADYYGVSTAYLMGISNQKVSEEKALTAAKKVYQVYLSDDDLGKEIRKALMYFNKNDLDSVLKQAMQQYFTIPAVEWNTEFQSLKNTGFLYSWLEGYLVDRYRKEVKTNHNLITNTYYSIPSIDDVNEYGIFSDEIQIPLTEDFKQIFKVEDLSTKTHEEIKKLFKSDSTLIAYSYESSVDDKLKDDINMILDNARSEILNLKEKYPDKPSRIEQTTVLISKDEDTSFWSRNGSNDYIDELNLSEETKKLFVHLGSVFIEEKKRKSKAKEEGGSHHHHHH

>  <soluble on expression in E. coli>
soluble

$$$$
>  <Sequence chain>
MRLAFFGDVHGNFEALKAVLEDMENKGVDEVFCLGDLVGYGPDPEAVVQTIMEKNIKTIMGNYDDAVGYSKESCGCSYAPGRETEVGDISLKWSIENTSEKTREFLRNLPKKLSFEVEGVRFLLVHGSPLNELLEYVKPNTPPDRLKKIVESVEENVVVNGHTHLPMVKWVMGKLVLNPGSAGRPKDGDPRASYMIVDVENGTVSFEIVRVRYDVKTTVEKIARNGLPVELATVLALGQTFDMGPGKVTFTLGR

>  <soluble on expression in E. coli>
soluble

$$$$

----------
# Assay notes: soluble on expression in E. coli; label from the status in PepcDB or PDB records
Recorded metric: soluble on expression in E. coli

>  <Sequence chain>
RWITATDWASLPQTADTPALILFHGLEGGSASRYAQSIAHYFRARGWIVVIAHFRGCSGVPNRLARAYYSGDSAEVGFMLDTVRARIPHARWHAVGVSLGGNALLKYLGEHHDEASWLAAAAGVSVPLDLVAGGKALCTGFIARRIYTAYFLKTMRRKVLEKAKRFPGAIDVIRIAHARDLRDFDDAYTARMHGYRNALDYWTRASSKPWLAHIKTPTLVLNARNDPFLPESALPIPAECSDSVLLHQPAEGGHAGFPTGPFPAHLNWLPQRLG

>  <Recorded metric>
soluble on expression in E. coli

>  <Measured>
not soluble

$$$$
>  <Sequence chain>
MGSDKIHHHHHHMADQTESVSGVNVDQAELQKFAELAHKWWDKNSEFKPLHEINPLRLNYIDEHAGLAGKRVLDVGCGGGILSESMSERGAEVTGIDLGEKALKVAKLHQYESSAKVDYRLISVEELAQESPESFDIVTCMEMLEHVPDPAAIVRACARLTKPGGKVFFSTINRNPKAYLFAVLGAEYVLNLLPRGTHEYEKFIKPSELAGWARAAGLDVIASKGMGYNPLTKRYKLNNDVSVNYILQTVK

>  <Recorded metric>
soluble on expression in E. coli

>  <Measured>
not soluble

$$$$

----------
# Assay notes: soluble on expression in E. coli; label from the status in PepcDB or PDB records

>  <Sequence chain>
MEHEQHSSINDILHHYKEGIGSFTNQIPEIAETYNAFTQACFQEGALTKREKQLIALGISLATQDEYCTIYHTKGCLDQGCSDKEILEACGVSAAFAGGAAMSQAVTLVQECLTELKNQKH

>  <soluble on expression in E. coli>
not soluble

$$$$
>  <Sequence chain>
MDDQGGTRPDLLSLKPTAVPRLPLVLLARSRLVAKLDDTADTVLICAPAGYGKTLLLSQWLEDQAHKVAWLSPNQHNREALWPAMLQALRRSPAIPPGALRQFSGDEEDAVEVLGDLAQELASTGTSVRLVIDGVDGFSSDERERWIPALLNQSGPPIQLALVARDSTAVDAGPARLSGRIVELRSSDLAFSLEEINVLAAKTTTL

>  <soluble on expression in E. coli>
not soluble

$$$$
>  <Sequence chain>
MKGVNMFERFTDRARRVIVLAQEEARGLNHNYIGTEHILLGLIHEGEGVAAKALESMGISLEAVRQEVEEIIGHGSEPPAGHIPFTPRAKKVLELSLREGLQMGHKYIGTEFLLLGLIREGDGVAAQVLVKLGADLPRVRQQVIQLLS

>  <soluble on expression in E. coli>
not soluble

$$$$

----------
# Assay notes: soluble on expression in E. coli; label from the status in PepcDB or PDB records

>  <Sequence chain>
MGSDKIHHHHHHMEKTILVHAAACAPAESCGYVVNTSAGERYFPCQNLSAEPTMYFRMAPEDYLRAQAAGDVVALVHSHPDGLPFLSDVDRRLQVQSGLPWWLVCHDRIYTFRCVPFLTGRVFEHGVTDCYTLFRDAYHLAGIEMPDFSRGEDWWKNGENLYLDNLEATGFYRVSGEEAQSGDILICCFGSSVANHAAIYCGNGELLHHIPDQLSKRERYTDKWQRRTHSIWRHRAWHESAFTGIYNDLAAALASV

>  <soluble on expression in E. coli>
not soluble

$$$$
>  <Sequence chain>
GPGSMMRCGNGSGPAAPSAASPRSHEGCLPHWMECSSASSSFVEDRVRCLVHPVGVTSLLPAPLQRILANVLRILQQERAQLKGQRPCRRHSRSLGTGVDAEVTECIVDAAQAPSLAAAADIFSAFVAAHPMDGLALLSSPVALVGAALAEVVTLGQVESCVIPMPELLSFLDAAISVGHPGAMHSVAICLREGTAGLQRDVTSSETWLRCAASSGYLPAMHELGETYERGAPASSKLPAGAAEDAADWGEAMQWYRRAAEAGYPPSQLNLGKLLLAASEHAQSAGSAAAPQVAHLFTEAKRWLHACAATGVEEAVRLVKRIEEQGAR

>  <soluble on expression in E. coli>
soluble

$$$$
>  <Sequence chain>
PSKKNGRSGPQPHKRWVFTLNNPSEDERKKIRDLPISLFDYFIVGEEGNEEGRTPHLQGFANFVKKQTFNKVKWYLGARCHIEKAKGTDQQNKEYCSKEGNLLMECGAPRSQGQR

>  <soluble on expression in E. coli>
soluble

$$$$
>  <Sequence chain>
LWHASIAIVGSRQPSAGGLDHSYGFAQALAARGLGIISGMAAGIDATAHEAALSIPSGHTVAVLGTGPDVPYPARHKKLHARITTDGAVISEYPPGTQPRAAHFPQRNRIIAGLALGTLVVEAGARSGALITARLAAEAGRAVFAVPGSLHNPMTRGCHQLIRQGATLVQDIDQILED

>  <soluble on expression in E. coli>
not soluble

$$$$

----------
# Assay notes: soluble on expression in E. coli; label from the status in PepcDB or PDB records
Recorded metric: soluble on expression in E. coli

>  <Sequence chain>
MGSDKIHHHHHHMREKLFWILKKYGVSDHIAKAFLEIPREEFLTKSYPLSYVYEDIVLVSYDDGEEYSTSSQPSLMALFMEWVGLDKGMRVLEIGGGTGYNAAVMSRVVGEKGLVVSVEYSRKICEIAKRNVERLGIENVIFVCGDGYYGVPEFSPYDVIFVTVGVDEVPETWFTQLKEGGRVIVPINLKLSRRQPAFLFKKKDPYLVGNYKLETRFITAGGNLGNLLERNRKLLREFPFNREILLVRSHIFVELVDLLTRRLTEIDGTFYYAGPNGVVEFLDDRMRIYGDAPEIENLLTQWESCGYRSFEYLMLHVGYNAFSHISCSI

>  <Measured>
not soluble

$$$$
>  <Sequence chain>
MGSDKIHHHHHHMKILVVGAGAVGGYFGARLAEKGEDVTFLVRERRFEELRAGLQVKSLHGDITCSPRLIRTGEKGTFDVILLSTKAYHLEQVLEDIEPFVATDTYILPLLNGMAHLKQLEQHFGAERVLGGLCFIESTLDGKGHIVQTSPSHHLLFGPLPGTRTDRLEELKQHLTGTAAPINYSDTITRDMWNKYLFITTFSGVTSLFRSAIGPIRSQEEGMMMIRRLATEAKEAMERQGAVFSDGIEQIQQQQIAQMDETMKSSLQRDMEKGNEVESAHLFGTLLSKDEATQVMLPAIYANLKIYRMSRKDV

>  <Measured>
not soluble

$$$$

Values compiled from the DeepSol protein solubility set.
